protocol-text: Life-span-increasing effect on irradiation of a lethal dose of radiation
Assay type: in vivo, mouse (BDF1)
setup-conditions: day 20; 10 mice/group; 9 Gy X-ray; 0.1 mg/kg i.v. days 0, 4, 8; controls per series 4, 5, 1, 2, 3, 0
Each item that follows carries a reported Number of Surviving Mice.
Record the value in mice, omitting the unit from your answer.

State its Number of Surviving Mice for this compound: CCCCCCCCCCCCCCCCCC(=O)N[C@@H](CO[C@H]1O[C@H](CO)[C@H](O)[C@H](O)[C@H]1O)[C@H](O)CCCCCCCCCCCCCCC [Compound 4]
8

State its Number of Surviving Mice for this compound: CCCCCCCCCCCCC/C=C/[C@@H](O)[C@H](CO[C@H]1O[C@H](CO)[C@H](O)[C@H](O)[C@H]1O)NC(=O)CCCCCCCCCCCCCCCCC [Compound 15]
6

State its Number of Surviving Mice for this compound: CCCCCCCCCCCCCCCCCCCCCCCCCC(=O)N[C@@H](CO[C@H]1O[C@H](CO)[C@H](O)[C@H](O)[C@H]1O)[C@H](O)[C@H](O)CCCCCCCCCCCCC [Compound 20]
7

---

System: blood platelets
protocol-text: Blood-platelet-increasing effect upon normal mouse
Assay type: in vivo, mouse (BDF1)
setup-conditions: normal mice; 6 days after 0.1 mg/kg i.v.; mean ± SD; vehicle per series 58.2, 63.0, 71.1
reported-metric: Number of Blood Platelets

Example entries begin here.
INSERT INTO assay_data (compound, observed_result) VALUES
  ('CCCCCCCCCCCCCCCCCCCCCCCC(=O)N[C@@H](CO[C@H]1O[C@H](CO)[C@H](O)[C@H](O)[C@H]1O)[C@H](O)[C@H](O)CCCCCCCCCCC', '111.7 ± 5.4 × 10^4 /μl'),
  ('CCCCCCCCCCCCCCCCCCCCCC[C@@H](O)C(=O)N[C@@H](CO[C@H]1O[C@H](CO)[C@H](O)[C@H](O)[C@H]1O)[C@H](O)[C@H](O)CCCCCCCCCCCCCC', '94.8 ± 7.7 × 10^4 /μl'),
  ('CCCCCCCCCCCCCCC[C@@H](O)[C@H](CO[C@H]1O[C@H](CO)[C@H](O)[C@H](O)[C@H]1O)NC(=O)CCCCCCCCC', '93.0 ± 12.1 × 10^4 /μl'),
  ('CCCCCCCCCCCCCCCCCCCCCCCC(=O)N[C@@H](CO[C@H]1O[C@H](CO)[C@H](O)[C@H](O)[C@H]1O)[C@H](O)CCCCCCCCCCCCCCC', '112.2 ± 6.5 × 10^4 /μl');

Name the recorded Number of Blood Platelets of CCCCCCCCCCCCCCCCCCCCCC[C@@H](O)C(=O)N[C@@H](CO[C@H]1O[C@H](CO)[C@H](O)[C@H](O)[C@H]1O)[C@H](O)[C@H](O)CCCCCCCCCCC , assay system blood platelets.
108.7 ± 14.8 × 10^4 /μl

---

Each item that follows carries a reported activity at 0.1 µg/mL.
Test system: marrow cells (mononuclear cell fraction)
protocol-text: Proliferation-stimulating effect on marrow cell of mouse (3H-TdR uptake)
Assay type: cell-based, mouse (BALB/c)
setup-conditions: 10^-1 μg/ml, percentage of control, 72 h
Record the value in %, omitting the unit from your answer.

Example entries begin here.
INSERT INTO results (molecule, observed_result) VALUES
  ('CCCCCCCCCCCCCCCCCCCCCCCC[C@@H](O)C(=O)N[C@@H](CO[C@H]1O[C@H](CO)[C@H](O)[C@H](O)[C@H]1O)[C@H](O)[C@H](O)CCCCCCCCCCCCCCC [Compound 26]', 271),
  ('CCCCCCCCCCCCCCCCCCCCCC[C@@H](O)C(=O)N[C@@H](CO[C@H]1O[C@H](CO)[C@H](O)[C@H](O)[C@H]1O)[C@H](O)[C@H](O)CCCCCCCCCCC [Compound 23]', 312),
  ('CCCCCCCCCCCCCCCCCCCCCC[C@@H](O)C(=O)N[C@@H](CO[C@H]1O[C@H](CO)[C@H](O)[C@H](O)[C@H]1O)[C@H](O)[C@H](O)CCCCCCCCCCCCC [Compound 22]', 226),
  ('CCCCCCCCCCCCCCCCCCCC(=O)N[C@@H](CO[C@H]1O[C@H](CO)[C@H](O)[C@H](O)[C@H]1O)[C@H](O)CCCCCCCCCCCCCCC [Compound 3]', 234),
  ('CCCCCCCCCCCCCCCCCCCCCC[C@@H](O)C(=O)N[C@@H](CO[C@H]1O[C@H](CO)[C@H](O)[C@H](O)[C@H]1O)[C@H](O)CCCCCCCCCCCCCCC [Compound 14]', 511);

State its activity at 0.1 µg/mL for this molecule: CCCCCCCCCCCCCCC[C@@H](O)[C@H](CO[C@H]1O[C@H](CO)[C@H](O)[C@H](O)[C@H]1O)NC(=O)CCCCCCC [Compound 7]
631

State its activity at 0.1 µg/mL for this molecule: CCCCCCCCCCCCCCCCCCCCCC[C@H](O)C(=O)N[C@@H](CO[C@H]1O[C@H](CO)[C@H](O)[C@H](O)[C@H]1O)[C@H](O)[C@H](O)CCCCCCCCCCCCC [Compound 28]
192

State its activity at 0.1 µg/mL for this molecule: CCCCCCCCCCCCCCCCCC(=O)N[C@@H](CO[C@H]1O[C@H](CO)[C@H](O)[C@H](O)[C@H]1O)[C@H](O)CCCCCCCCCCCCCCC [Compound 4]
297

State its activity at 0.1 µg/mL for this molecule: CCCCCCCCCCCCCCCCCCCCCC[C@@H](O)C(=O)N[C@@H](CO[C@H]1O[C@H](CO)[C@H](O)[C@H](O)[C@H]1O)[C@H](O)[C@H](O)CCCCCCCCCCCCCC [Compound 21]
244

State its activity at 0.1 µg/mL for this molecule: CCCCCCCCCCCCCCCCCCCCCCCC[C@@H](O)C(=O)N[C@@H](CO[C@H]1O[C@H](CO)[C@H](O)[C@H](O)[C@H]1O)[C@H](O)[C@H](O)CCCCCCCCCCCCCC [Compound 25]
331

State its activity at 0.1 µg/mL for this molecule: CCCCCCCCCCCCCCCCCCCCCCCC(=O)N[C@@H](CO[C@H]1O[C@H](CO)[C@H](O)[C@H](O)[C@H]1O)[C@H](O)[C@H](O)CCCCCCCCCCCCC [Compound 17]
462
